System: human lung cancer strain NCI-H441
Experiment: NCI-H441 cell proliferation inhibitory activity (CellTiter-Glo, 4 days)
Assay type: cell-based
Details: NCI-H441 cells, 4 days, read-out: NCl-H441 IC50
endpoint_label: IC50

Take a look at these entries with their results.
| compound | subject_of_test | endpoint_label | recorded_value |
| --- | --- | --- | --- |
| CCCO[C@@H]1C[C@H]2C(=O)NC3(CC(C)(C)C3)C(=O)N(C)[C@@H](C3CCCC3)C(=O)N(C)[C@H](C(=O)N(C)CC)CC(=O)N(C)[C@@H](COCC)C(=O)N[C@@H]([C@@H](C)CC)C(=O)N3C[C@@H](C)C[C@H]3C(=O)N(C)[C@H]3C/C=C\CCN(C3=O)[C@@H](Cc3ccc(C)cc3)C(=O)N(C)CC(=O)N[C@@H](CCc3ccc(C(F)(F)F)c(Cl)c3)C(=O)N2C1 [PP3464] | human lung cancer strain NCI-H441 | IC50 | 162 nM |
| CCC[C@H]1C(=O)N[C@@H]([C@@H](C)CC)C(=O)N(C)CC(=O)N(C)[C@H]2C/C=C\CCN(C2=O)[C@@H](Cc2ccc(C)cc2)C(=O)N(C)CC(=O)N[C@@H](CCc2cc(F)c(C(F)(F)F)c(F)c2)C(=O)N2CC3(CC3)C[C@H]2C(=O)NC2(CCC2)C(=O)N(C)[C@@H](C(CC)CC)C(=O)N(C)[C@H](C(=O)N(C)C)CC(=O)N1C [PP3420] | human lung cancer strain NCI-H441 | IC50 | 13.2 nM |

Measured IC50, CCC[C@H]1C(=O)N[C@@H]([C@@H](C)CC)C(=O)N(C)CC(=O)N(C)[C@H]2C/C=C\CCN(C2=O)[C@@H](Cc2ccc(C)cc2)C(=O)N(C)CC(=O)N[C@@H](CCc2cc(F)c(C(F)(F)F)c(F)c2)C(=O)N2C[C@H](OCC)C[C@H]2C(=O)NC2(CC(C)(C)C2)C(=O)N(C)[C@@H](CC(C)(C)C)C(=O)N(C)[C@H](C(=O)N(C)C)CC(=O)N1C [PP2706] : 2.3 nM

Reference source: patent EP4603105A1
